# EXPERIMENTAL_SYSTEM: human ether-à-go-go-related gene (hERG) potassium channel (human);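 further: peak tail current of the secondary pulse compared with the same well before compound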
# TEST_METHOD_NOTES: primary screen, population patch clamp on CHO cells stably expressing hERG; higher = less effect of the substance
About 14,000 (4.5%) of roughly 310,000 compounds showed an effect of 50% or more. Effects have a minus sign here. The sample as a whole holds a higher share of strong results than the screen did.
ENDPOINT_NAME: hERG current change (%, negative = inhibition) at 10uM

{"MOLECULE": "Cc1ccc(-c2nc(CSc3nc4ccccc4c(=O)n3C)cs2)cc1", "DATA_VALUE": "9.52%"}
{"MOLECULE": "COc1ccc(N2CC(C(=O)Nc3nc4ccc(OC)cc4s3)CC2=O)cc1 (stereo not shown)", "DATA_VALUE": "-58.8%"}
{"MOLECULE": "O=C(CSc1ccc2nnc(-c3ccccn3)n2n1)Nc1cccc(F)c1", "DATA_VALUE": "-40.6%"}
{"MOLECULE": "Fc1cccc(CSc2ccc3nnc(-c4ccccn4)n3n2)c1", "DATA_VALUE": "-77.9%"}
{"MOLECULE": "COc1cccc(NC(=O)CSc2ccc3nnc(-c4ccccn4)n3n2)c1", "DATA_VALUE": "-47.3%"}
{"MOLECULE": "Cc1ccc(OCCNC(=O)CCNS(=O)(=O)c2ccc(Br)cc2)cc1", "DATA_VALUE": "15.7%"}
{"MOLECULE": "CC(C)N(CCNS(=O)(=O)c1ccc(Cl)cc1)C(C)C.Cl", "DATA_VALUE": "-28.1%"}
{"MOLECULE": "O=C(NCc1cccc(Cl)c1)C1CCC(=O)N(CCN2CCOCC2)C1 (stereo not shown)", "DATA_VALUE": "20.5%"}
{"MOLECULE": "Cc1ccc(S(=O)(=O)N2CCOC2CNC(=O)C(=O)NCCc2ccccc2)cc1 (stereo not shown)", "DATA_VALUE": "-25.6%"}
{"MOLECULE": "O=C(Nc1nc2ccccc2s1)C1CC(=O)N(c2ccccc2)C1 (stereo not shown)", "DATA_VALUE": "-11.2%"}

---

# EXPERIMENTAL_SYSTEM: human ether-à-go-go-related gene (hERG) potassium channel (human, UniProt Q12809);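 further: peak tail current of the secondary pulse compared with the same well before compound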
# Sequence (Q12809 whole entry, looked up): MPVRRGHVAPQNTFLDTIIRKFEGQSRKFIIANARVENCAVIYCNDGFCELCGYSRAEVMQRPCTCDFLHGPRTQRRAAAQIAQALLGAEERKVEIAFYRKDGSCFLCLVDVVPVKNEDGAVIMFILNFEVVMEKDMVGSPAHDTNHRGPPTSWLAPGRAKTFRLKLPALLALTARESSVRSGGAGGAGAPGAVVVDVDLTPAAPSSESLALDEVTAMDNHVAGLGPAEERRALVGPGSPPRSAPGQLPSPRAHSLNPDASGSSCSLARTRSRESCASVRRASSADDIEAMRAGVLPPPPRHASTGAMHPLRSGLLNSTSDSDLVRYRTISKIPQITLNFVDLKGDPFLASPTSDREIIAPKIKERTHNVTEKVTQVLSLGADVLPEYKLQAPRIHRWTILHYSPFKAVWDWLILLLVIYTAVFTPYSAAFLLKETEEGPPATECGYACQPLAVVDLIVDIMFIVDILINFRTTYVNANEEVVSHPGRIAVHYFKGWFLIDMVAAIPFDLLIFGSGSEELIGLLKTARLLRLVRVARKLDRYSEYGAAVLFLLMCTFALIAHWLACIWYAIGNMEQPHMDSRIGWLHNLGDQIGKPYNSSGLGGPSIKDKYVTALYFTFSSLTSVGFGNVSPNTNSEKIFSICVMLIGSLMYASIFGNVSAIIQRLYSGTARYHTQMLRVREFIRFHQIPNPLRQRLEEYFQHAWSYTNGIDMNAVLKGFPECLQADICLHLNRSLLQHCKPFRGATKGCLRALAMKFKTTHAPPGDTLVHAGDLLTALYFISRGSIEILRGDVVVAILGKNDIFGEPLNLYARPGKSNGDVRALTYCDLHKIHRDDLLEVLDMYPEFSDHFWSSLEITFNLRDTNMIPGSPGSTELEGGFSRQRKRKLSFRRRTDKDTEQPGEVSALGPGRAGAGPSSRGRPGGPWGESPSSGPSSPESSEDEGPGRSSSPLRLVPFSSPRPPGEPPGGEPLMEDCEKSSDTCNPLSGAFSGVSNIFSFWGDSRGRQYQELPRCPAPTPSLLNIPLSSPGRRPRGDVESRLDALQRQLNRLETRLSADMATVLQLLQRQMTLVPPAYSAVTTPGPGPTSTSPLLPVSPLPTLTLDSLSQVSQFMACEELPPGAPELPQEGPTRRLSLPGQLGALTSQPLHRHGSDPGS
# TEST_METHOD_NOTES: primary screen, population patch clamp on CHO cells stably expressing hERG; higher = less effect of the substance
Screen size: about 310,000 compounds; about 14,000 (4.5%) showed an effect of 50% or more. Effects have a minus sign here. The list comes from a sample in which strong results are over-represented; it also holds close analogues and randomly drawn compounds.
ENDPOINT_NAME: hERG current change (%, negative = inhibition) at 10uM (%)

{"COMPOUND": "Cl.OC(Cc1ccccc1)(c1ccccc1)C1CN2CCC1CC2 (stereo not shown)", "DATA_VALUE": -49.7}
{"COMPOUND": "CCOc1ccc(CCNC(=O)c2nnc(Cc3ccc(F)cc3)o2)cc1OCC", "DATA_VALUE": -1.78}
{"COMPOUND": "c1ccc(C2CN3CCC2CC3)cc1 (stereo not shown)", "DATA_VALUE": -5.74}
{"COMPOUND": "CSc1ccccc1C(=O)N1CCOCC1", "DATA_VALUE": 20}
{"COMPOUND": "O=C(C(=O)N1CCCC1)c1c[nH]c2ccccc12", "DATA_VALUE": 7.14}
{"COMPOUND": "CC(=O)c1c(C)[nH]c(C(=O)NCCC2=CCCCC2)c1C", "DATA_VALUE": 4.77}
{"COMPOUND": "CN1CCN(CCCNC(=O)Cn2nc(-c3ccccc3)ccc2=O)CC1", "DATA_VALUE": 14.1}
{"COMPOUND": "O=C(C(=O)N1CCOCC1)c1c[nH]c2ccccc12", "DATA_VALUE": 18.3}
{"COMPOUND": "CSc1ccccc1C(=O)N1CCCCC1", "DATA_VALUE": -9.98}
{"COMPOUND": "CCCCn1c(SCC(=O)Nc2cc(C)on2)nnc1-c1cccs1", "DATA_VALUE": -48.3}
{"COMPOUND": "Cl.OC(c1cccc(Cl)c1)(c1cccc(Cl)c1)C1CN2CCC1CC2 (stereo not shown)", "DATA_VALUE": -81.8}
{"COMPOUND": "CSc1ccccc1C(=O)N1CCC2(CC1)CC(=O)c1ccccc1O2", "DATA_VALUE": -61}
{"COMPOUND": "O=C(Cn1nc(-c2ccc(Cl)cc2)ccc1=O)NCCCN1CCN(Cc2ccccc2)CC1", "DATA_VALUE": -64.2}
{"COMPOUND": "COc1ccc2c(c1)[nH]c1c(C)nccc12.Cl", "DATA_VALUE": -28}
{"COMPOUND": "O=C1CC2(CCCC2)Oc2ccccc21", "DATA_VALUE": 3.39}
{"COMPOUND": "COc1ccc(S(=O)(=O)N2CCC3(CC2)CC(=O)c2ccccc2O3)cc1C", "DATA_VALUE": -3.6}
{"COMPOUND": "O=C1CCC/C(=N/NC(=O)c2sc3ccccc3c2Cl)C1", "DATA_VALUE": 5.82}
{"COMPOUND": "COc1ccc(Cl)cc1C(=O)N1CCC2(CC1)CC(=O)c1ccccc1O2", "DATA_VALUE": -80.5}
{"COMPOUND": "Cc1ccc(C(O)(c2ccc(C)c(C)c2)C2CN3CCC2CC3)cc1C.Cl (stereo not shown)", "DATA_VALUE": -67.6}
{"COMPOUND": "O=C(N/N=C/c1ccco1)c1cc(-c2ccccc2)nc2ccccc12", "DATA_VALUE": 2.45}
{"COMPOUND": "Cl.OC(c1ccccc1)(c1ccccc1)C1CN2CCC1CC2 (stereo not shown)", "DATA_VALUE": -45.2}
{"COMPOUND": "COc1ccc(C(=O)NCC(=O)N/N=C/c2ccco2)cc1OC", "DATA_VALUE": 25.9}
